Observed IC50 values for Phospholipase A2 group V (Homo sapiens) are listed in what follows.
Unit µM implied. Number only.

The examples below pair each entry with its known result.
Prompt: For the molecule shown here, CN1CN(CC(=O)OC(C)(C)C)C(=O)N(CC(=O)OC(C)(C)C)[C@@H](Cc2ccccc2)C1=O , give the reported IC50.
Response: 11

Prompt: Further, for CN1CN(C/C=C/C(=O)O)C(=O)N[C@@H](Cc2ccccc2)C1=O ?
Response: 12

Others:
Prompt: For the molecule shown here, CN1C(=O)[C@H](Cc2ccccc2)NC(=O)N[C@@H]1Cc1ccccc1 , give the reported IC50.
Response: 11

---

Biological target: Purine nucleoside phosphorylase (Toxoplasma gondii, UniProt Q2HXR2)
Sequence (Q2HXR2 whole entry): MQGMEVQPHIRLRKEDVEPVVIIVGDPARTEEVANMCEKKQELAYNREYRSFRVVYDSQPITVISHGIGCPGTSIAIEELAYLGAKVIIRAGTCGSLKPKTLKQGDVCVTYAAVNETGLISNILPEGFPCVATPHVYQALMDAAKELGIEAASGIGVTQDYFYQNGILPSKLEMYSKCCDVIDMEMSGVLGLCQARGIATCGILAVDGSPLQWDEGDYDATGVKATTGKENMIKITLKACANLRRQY
Assay: Inhibition of Toxoplasma gondii purine nucleoside phosphorylase
result-type: Ki (µM)
Unit µM implied. Number only.

Prompt: For the compound shown here, O=C1N[C@@H](Cc2ccccc2)C(=O)N2C[C@H](OCc3ccccc3)C[C@H]2N1 , give the reported Ki.
Response: 8

---

Organism: Homo sapiens
Test: Inhibition of methionine aminopeptidase
The source made the active and inactive calls. No cut-off for these calls is given here.
result-type: Activity

Prompt: For the compound shown here, CC(C)C[C@@H]1NC(=O)NCN(C)C1=O , give the reported Activity.
Response: inactive

Prompt: Further, for O=C1[C@@H]2Cc3ccccc3CN2C(=O)N[C@@H]2CCCN12 ?
Response: inactive

Prompt: Further, for CN1CNC(=O)N[C@@H](Cc2ccccc2)C1=O ?
Response: inactive

Prompt: Further, for O=C1N[C@@H](Cc2ccccc2)C(=O)N2C[C@H](OCc3ccccc3)C[C@H]2N1 ?
Response: inactive

Prompt: Further, for O=C1N[C@@H](Cc2ccccc2)C(=O)N2C[C@H](O)C[C@H]2N1 ?
Response: inactive

Prompt: Further, for CN1CN(CC(=O)O)C(=O)N[C@@H](Cc2ccccc2)C1=O ?
Response: inactive

Prompt: Further, for CN1CNC(=O)N[C@@H](CN)C1=O ?
Response: inactive

With those in mind, consider the next compound.
Prompt: For the compound shown here, C[C@@H]1NC(=O)NC2Cc3ccccc3CN2C1=O (stereo partly drawn) , give the reported Activity.
Response: inactive

---

Target: Group 10 secretory phospholipase A2 (Homo sapiens, UniProt O15496)
Sequence (O15496 whole entry): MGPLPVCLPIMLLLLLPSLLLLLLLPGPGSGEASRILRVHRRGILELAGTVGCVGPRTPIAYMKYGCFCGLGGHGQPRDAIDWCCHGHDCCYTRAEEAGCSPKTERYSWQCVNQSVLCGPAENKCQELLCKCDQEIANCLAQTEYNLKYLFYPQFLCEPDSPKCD
Experiment: Inhibition of human group 10 sPLA2
result-type: IC50 (µM)
Unit µM implied. Number only.

The examples below pair each entry with its known result.
Prompt: For the molecule shown here, CC(C)[C@@H]1NC(=O)N(CC(=O)OC(C)(C)C)CN(C)C1=O , give the reported IC50.
Response: 11

Prompt: Further, for CN1CN(C/C=C/C(=O)O)C(=O)N[C@@H](Cc2ccccc2)C1=O ?
Response: 10

Prompt: Further, for CN1C(=O)[C@H](Cc2ccccc2)NC(=O)N[C@@H]1Cc1ccccc1 ?
Response: 13

With those in mind, consider the next molecule.
Prompt: For the molecule shown here, CN1CN(CC(=O)OC(C)(C)C)C(=O)N(CC(=O)OC(C)(C)C)[C@@H](Cc2ccccc2)C1=O , give the reported IC50.
Response: 11

The measured values listed here are drawn from ChEMBL document CHEMBL1137329.
